meta.source: the supplement of paper PMC10126150

- System: ATP;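 also: ATP exposure 15 min at 22 °C before imaging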
- test-protocol: switch fluorescence ratio, 500 uM ATP over buffer (Cy3 cluster intensity, sum of 5 cycles each) (fold (ratio)); higher = stronger signal-on switching upon ATP binding; sequences stand for … in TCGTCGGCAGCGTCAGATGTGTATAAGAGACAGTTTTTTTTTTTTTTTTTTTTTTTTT…TC
- assay-context: aptamer strand: ATP DNA aptamer (quencher-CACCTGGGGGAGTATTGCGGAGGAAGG + anchor), 100 nM annealed; ATP concentration: 500 uM
Kindly return yes (1) if reported switch fluorescence ratio is no lower than 1; return no (0) if it is lower.

QUERY: Is the recorded value of switch fluorescence ratio equal to or greater than 1 for this sequence? `CCCGGTGTGT`
RESULT: yes (1)

QUERY: Does `AAGCACCGGG` have a reported switch fluorescence ratio of at least 1?
RESULT: yes (1)

QUERY: Please tell me: is the sequence `TCTTGCAAGG` at or over 1 in terms of switch fluorescence ratio?
RESULT: yes (1)

QUERY: For this sequence, is measured switch fluorescence ratio 1 or higher? `TAAAAGACCG`
RESULT: yes (1)

QUERY: Has `AAACGGACGC` a recorded switch fluorescence ratio greater than or equal to 1?
RESULT: yes (1)

QUERY: Please tell me: is the sequence `ATGTTAGTTG` at or over 1 in terms of switch fluorescence ratio?
RESULT: no (0)

QUERY: # check: switch fluorescence ratio of `GGGTTAATGC` is greater than or equal to 1
RESULT: yes (1)

QUERY: Does `CCGTGATGGG` have a reported switch fluorescence ratio of at least 1?
RESULT: yes (1)

QUERY: Could you please find out whether `ATTTGGGGTC` has switch fluorescence ratio that meets 1 or exceeds it?
RESULT: no (0)

QUERY: In plain terms: is recorded switch fluorescence ratio at least 1 for `TTTAGTAGGT` ?
RESULT: yes (1)

QUERY: Does the sequence `AGACGGGTGC` have recorded switch fluorescence ratio that is 1 or more?
RESULT: yes (1)

====

- Tested on: ATP;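 also: ATP exposure 15 min at 22 °C before imaging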
- test-protocol: switch fluorescence ratio, 500 uM ATP over buffer (Cy3 cluster intensity, sum of 5 cycles each) (fold (ratio)); higher = stronger signal-on switching upon ATP binding; sequences stand for … in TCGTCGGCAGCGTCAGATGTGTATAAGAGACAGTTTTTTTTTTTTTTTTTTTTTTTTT…TC
- assay-context: aptamer strand: ATP DNA aptamer (quencher-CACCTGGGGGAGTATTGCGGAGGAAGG + anchor), 100 nM annealed; ATP concentration: 500 uM
parameter-measured: switch fluorescence ratio
The reply should be a number, written without any unit.

QUERY: switch fluorescence ratio for `GGGACTGGGG` ?
RESULT: 1.02

QUERY: What does the record list as switch fluorescence ratio for `CTGGGGCGGG` ?
RESULT: 0.996

QUERY: Can you share its switch fluorescence ratio? I mean this sequence: `TGATCTGTCG`
RESULT: 0.981

QUERY: Endpoint output: switch fluorescence ratio of `AGGTAAAGTT` . Value?
RESULT: 0.972

QUERY: Quick one: switch fluorescence ratio for `GGGCTATATT` ?
RESULT: 0.99

QUERY: Which measured switch fluorescence ratio value corresponds to `CTGGTAATTT` ?
RESULT: 1.02

QUERY: // returns reported switch fluorescence ratio for input `TCTGCCTTGG`
RESULT: 0.984

QUERY: What value of measured switch fluorescence ratio is listed for `TGGAGGGGGC` ?
RESULT: 1.01

QUERY: Record request: switch fluorescence ratio value, item `GTATGGAGAG`
RESULT: 1.01

QUERY: So what does the record say about switch fluorescence ratio for `GGTTTCTTGA` ?
RESULT: 1.02

QUERY: Which switch fluorescence ratio value belongs to `TCGTCGGGGC` ?
RESULT: 1.03

QUERY: Looking for the measured switch fluorescence ratio of `ACGAGTTTGG` , can you help?
RESULT: 0.963

QUERY: What value of measured switch fluorescence ratio is listed for `AAAGTTGTCT` ?
RESULT: 1.01

QUERY: Can you share its switch fluorescence ratio? I mean this sequence: `GGGCATTGTG`
RESULT: 1.03

QUERY: Can you look up the measured switch fluorescence ratio of `TATTTAAACG` for me?
RESULT: 1

QUERY: For `AAGATTTCGT` , what is its reported switch fluorescence ratio?
RESULT: 1

QUERY: What measured switch fluorescence ratio goes with `TCAGTAAATT` ?
RESULT: 0.965

QUERY: What does the record list as switch fluorescence ratio for `AGCGGCCTGG` ?
RESULT: 0.992

QUERY: So what's the measured switch fluorescence ratio for this one? `TAAAATTTAG`
RESULT: 1

QUERY: So what does the record say about switch fluorescence ratio for `GACTTCGGGA` ?
RESULT: 1.13

QUERY: Sample `TTTGATCAGC` — what was its switch fluorescence ratio?
RESULT: 0.983

QUERY: Entry `GGTCTAGGGT` has what switch fluorescence ratio?
RESULT: 1.03

QUERY: So what's the measured switch fluorescence ratio for this one? `GACCTCGGGA`
RESULT: 1.02

QUERY: Recorded switch fluorescence ratio for `AAGTTCGGTG` , please?
RESULT: 0.969

QUERY: // query switch fluorescence ratio value for entry `CAAGCTATCA`
RESULT: 1.03

QUERY: Given the entry `TTCAATACCG` , report its measured switch fluorescence ratio.
RESULT: 1.09

QUERY: Entry under review: `GCTTTTCGGG` . Reported switch fluorescence ratio?
RESULT: 1.02

QUERY: Please give the measured switch fluorescence ratio for this sequence: `GAATTCACGG`
RESULT: 1.06

QUERY: Any idea what its switch fluorescence ratio is? The sequence is `CGTTGGGTTG`
RESULT: 0.987

QUERY: Report switch fluorescence ratio for `TGCCGGGGGA` please.
RESULT: 1.01

QUERY: Which switch fluorescence ratio value belongs to `CTTGACAGAG` ?
RESULT: 0.984

QUERY: Bench note: what switch fluorescence ratio did `TGATTTTGGC` show?
RESULT: 1.01

QUERY: Which switch fluorescence ratio value is on record for `ATTTTTCTCG` ?
RESULT: 0.96

QUERY: What measured switch fluorescence ratio goes with `AAATTGGTTG` ?
RESULT: 0.976

QUERY: For the sequence `AATGAAGTTT` , what switch fluorescence ratio is on record?
RESULT: 1.43

QUERY: Fill blank: measured switch fluorescence ratio of the sequence `TTTCTGGGGC` is ____.
RESULT: 1.08

QUERY: If you can, please state the reported switch fluorescence ratio value of `GTCAGCATTT` .
RESULT: 1.03

QUERY: Any idea what its switch fluorescence ratio is? The sequence is `TAAATTTAGG`
RESULT: 0.989

QUERY: Dear colleague, I am looking for the recorded switch fluorescence ratio of the following sequence: `TTTAAAATTC`
RESULT: 1.28

QUERY: Suppose we examine the sequence `AGGTATCAAT` ; what switch fluorescence ratio value has been reported?
RESULT: 1

QUERY: Look up switch fluorescence ratio: `AGTCGGTTAA`
RESULT: 1.02

QUERY: Please look up its switch fluorescence ratio: `CAATGTGTCG`
RESULT: 1.07

QUERY: # get_value(readout='switch fluorescence ratio', item= `CTAATTTAGG` )
RESULT: 1

QUERY: Request the reported switch fluorescence ratio associated with `CAGGGGTTGA`
RESULT: 0.987

QUERY: Recorded switch fluorescence ratio for `GCTTCCTAAG` , please?
RESULT: 1.14

QUERY: Value lookup for switch fluorescence ratio; key = `TTAAGAGGGT`
RESULT: 0.997

QUERY: Can you look up the measured switch fluorescence ratio of `TGTTTTCGT` for me?
RESULT: 1.02

QUERY: I would be grateful if you could share the reported switch fluorescence ratio for `CTACAATGTA` .
RESULT: 1.01

QUERY: Look at this sequence and give its reported switch fluorescence ratio. `GGGTTCGGGG`
RESULT: 1

QUERY: Give the measured switch fluorescence ratio of `TACTTCATTC` .
RESULT: 1.04

QUERY: Name the reported switch fluorescence ratio value associated with the sequence `TAAATTATGG`
RESULT: 0.996

QUERY: I have this sequence here, `TAATTAGAGG` , and I need its recorded switch fluorescence ratio.
RESULT: 1.01

QUERY: Item `GGATACGGGC` has what recorded switch fluorescence ratio?
RESULT: 1.02

QUERY: Using the record for `ATTATGAATT` , report its switch fluorescence ratio.
RESULT: 1.01

QUERY: I am curious: what switch fluorescence ratio value has been reported for `GACCTTTAAA` ?
RESULT: 1.02

QUERY: Find the recorded switch fluorescence ratio belonging to `CATGGGGTCT` and report it.
RESULT: 1.03

QUERY: What value of switch fluorescence ratio has been reported for the following sequence? `GCGAGTGCGG`
RESULT: 1.02

QUERY: Give its switch fluorescence ratio value. Item: `AATTTACTGG`
RESULT: 1.13

QUERY: Given the sequence `TGTCGCATTT` , what is its reported switch fluorescence ratio?
RESULT: 1.04

QUERY: Fill blank: measured switch fluorescence ratio of the sequence `AACTATTGTA` is ____.
RESULT: 1.01

QUERY: # input sequence: `TAAGTATGTC` ; wanted: its switch fluorescence ratio
RESULT: 0.995

QUERY: Tell me the measured switch fluorescence ratio of `GACCCGCTAA` , please.
RESULT: 4.18

QUERY: Tell me the measured switch fluorescence ratio of `TCTTTTGTG` , please.
RESULT: 1.13

QUERY: What value of measured switch fluorescence ratio is listed for `GTTGACGGGT` ?
RESULT: 0.971

QUERY: Find the recorded switch fluorescence ratio belonging to `GTGGTTAGGG` and report it.
RESULT: 1.01

QUERY: Quick check: switch fluorescence ratio of `TCTTATGGGG` ?
RESULT: 0.994

QUERY: Which measured switch fluorescence ratio value corresponds to `TAATGCTGTT` ?
RESULT: 0.997

QUERY: Query: switch fluorescence ratio; subject: `TTCGTCGGAT`
RESULT: 0.999

QUERY: Which switch fluorescence ratio value belongs to `TTAGGGAA` ?
RESULT: 1.01

QUERY: What switch fluorescence ratio value was documented for this sequence, `TGAAGAAGTG` ?
RESULT: 0.994

QUERY: Returns the measured switch fluorescence ratio for the input sequence. Input: `TTGAAATTT`
RESULT: 1

QUERY: switch fluorescence ratio for `AGTAAGAGGG` ?
RESULT: 1.01

QUERY: Please look up its switch fluorescence ratio: `AAGTTCGGG`
RESULT: 1.03

QUERY: Item `GGGAAGCATT` has what recorded switch fluorescence ratio?
RESULT: 0.989

QUERY: Any idea what its switch fluorescence ratio is? The sequence is `GCTGACGTTA`
RESULT: 1.1

QUERY: Given the entry `TGTGTGGGAC` , report its measured switch fluorescence ratio.
RESULT: 0.988

QUERY: Given `TGCTGGGCC` , state its recorded switch fluorescence ratio.
RESULT: 1.02

QUERY: Data request, read-out switch fluorescence ratio, for `GTTCTTTTTC`
RESULT: 0.978

QUERY: Using the record for `TGAGAATTTT` , report its switch fluorescence ratio.
RESULT: 0.996

QUERY: Please report the recorded switch fluorescence ratio for `TAAAAATGTT` .
RESULT: 0.988

QUERY: Requested field: switch fluorescence ratio. Item: `TCGGCGGTTT`
RESULT: 0.977

QUERY: Item under review: `GGGGAGCGAG` . Reported switch fluorescence ratio?
RESULT: 1.02
